Subject of test: Cy5-labelled Mcl1 (amino acids 171-321) C286S protein (UniProtKB Q07820) (Homo sapiens (Human), UniProt Q07820, C286S)
Sequence (Q07820 171-321 C286S): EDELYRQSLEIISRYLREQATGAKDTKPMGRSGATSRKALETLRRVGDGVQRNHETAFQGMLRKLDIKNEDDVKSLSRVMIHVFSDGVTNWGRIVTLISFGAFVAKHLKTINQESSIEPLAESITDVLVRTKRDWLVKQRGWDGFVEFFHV
Experiment description: Inhibition of Mcl-1 by the fluorescence quenching assay (Example A, Method B)
Type: binding
Ki: recorded values
Answer in nM, number only, no unit symbol.

These recorded examples may help you get a feel for the data.
Cc1cc(OC[C@H](C)C[C@H]2Cc3ccccc3[C@]23CC[C@@](Nc2cccc(Cl)c2)(C(=O)O)CC3)c2c(n1)CCCC2C (single isomer, unassigned) [Example 663] : 23.1
O=C(O)[C@]1(Nc2cccc(Cl)c2)CC[C@@]2(CC1)c1ccccc1CC2CC(COc1ccnc2ccsc12)C(F)F (stereo partly drawn) : 19.9
C[C@@H](COc1ccnc2c1CCC[C@@H]2F)C[C@H]1Cc2ccccc2[C@]12CC[C@@](Nc1cccc(Cl)c1)(C(=O)O)CC2 : 2.09
CO[C@@H]1CCCc2nccc(OC[C@H](C)C[C@H]3Cc4ccccc4[C@]34CC[C@@](Nc3cccc(Cl)c3)(C(=O)O)CC4)c21 : 2.44
C[C@@H](COc1ccnc2c1[C@@H](C)CCC2)C[C@H]1Cc2cccc(F)c2[C@]12CC[C@@](Nc1cccc(Cl)c1)(C(=O)O)CC2 : 12.1

Would you kindly look at the next entry?
q: # return recorded Ki for entry C[C@@H]1CCCc2nccc(OCC(CF)CC3=Cc4ccccc4[C@]34CC[C@@](Nc3cccc(Cl)c3)(C(=O)O)CC4)c21 (single isomer, unassigned) [Example 515]
a: 26.4

Attribution: patent US20240150293A1
